Where do these numbers come from? They come from the supplement of paper PMC11316812.

In this section we review reported percentage of EdU-negative values for a set of sequences.
tested on: hTERT-HMEC; assay: percentage of EdU-negative (G0-arrested) nuclei per well, 72 h; higher = more G0 arrest; settings: protein concentration 0.0225 µM; reference: sequence is the full UniProt precursor, the tested protein was the secreted form or ectodomain;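 note: secreted proteins added to cultured cells, EdU pulse at the end, nuclei found by Hoechst imaging, EdU status from nuclear versus surrounding ring intensity ratio, PBS as neutral control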

sequence.entry	tgt	percentage of EdU-negative (%)
MFFWCACCLMVAWRVSASDAEHCPELPPVDNSIFVAKEVEGQILGTYVCIKGYHLVGKKTLFCNASKEWDNTTTECRLGHCPDPVLVNGEFSSSGPVNVSDKITFMCNDHYILKGSNRSQCLEDHTWAPPFPICKSRDCDPPGNPVHGYFEGNNFTLGSTISYYCEDRYYLVGVQEQQCVDGEWSSALPVCKLIQEAPKPECEKALLAFQESKNLCEAMENFMQQLKESGMTMEELKYSLELKKAELKAKLL	hTERT-HMEC	5.33
MARPLCTLLLLMATLAGALASSSKEENRIIPGGIYDADLNDEWVQRALHFAISEYNKATEDEYYRRPLQVLRAREQTFGGVNYFFDVEVGRTICTKSQPNLDTCAFHEQPELQKKQLCSFEIYEVPWEDRMSLVNSRCQEA	hTERT-HMEC	5.17
MQWLRVRESPGEATGHRVTMGTAALGPVWAALLLFLLMCEIPMVELTFDRAVASGCQRCCDSEDPLDPAHVSSASSSGRPHALPEIRPYINITILKGDKGDPGPMGLPGYMGREGPQGEPGPQGSKGDKGEMGSPGAPCQKRFFAFSVGRKTALHSGEDFQTLLFERVFVNLDGCFDMATGQFAAPLRGIYFFSLNVHSWNYKETYVHIMHNQKEAVILYAQPSERSIMQSQSVMLDLAYGDRVWVRLFKRQRENAIYSNDFDTYITFSGHLIKAEDD [Q9BXI9]	hTERT-HMEC	4.57

###

tested on: MCF7; test: percentage of EdU-negative (G0-arrested) nuclei per well, 72 h; higher = more G0 arrest; details: protein concentration 0.225 µM; reference: sequence is the full UniProt precursor, the tested protein was the secreted form or ectodomain
// percentage of EdU-negative lookup, one value per entry
measured.quantity: percentage of EdU-negative (%)

sequence.entry	measured.quantity	endpoint.result
MGPPSASPHRECIPWQGLLLTASLLNFWNPPTTAKLTIESMPLSVAEGKEVLLLVHNLPQHLFGYSWYKGERVDGNSLIVGYVIGTQQATPGAAYSGRETIYTNASLLIQNVTQNDIGFYTLQVIKSDLVNEEATGQFHVYQENAPGLPVGAVAGIVTGVLVGVALVAALVCFLLLAKTGRTSIQRDLKEQQPQALAPGRGPSHSSAFSMSPLSTAQAPLPNPRTAASIYEELLKHDTNIYCRMDHKAEVAS	percentage of EdU-negative	25.4
MKASSLAFSLLSAAFYLLWTPSTGLKTLNLGSCVIATNLQEIRNGFSEIRGSVQAKDGNIDIRILRRTESLQDTKPANRCCLLRHLLRLYLDRVFKNYQTPDHYTLRKISSLANSFLTIKKDLRLCHAHMTCHCGEEAMKKYSQILSHFEKLEPQAAVVKALGELDILLQWMEETE [Q9NYY1]	percentage of EdU-negative	27.2
MAQLCGLRRSRAFLALLGSLLLSGVLAADRERSIHDFCLVSKVVGRCRASMPRWWYNVTDGSCQLFVYGGCDGNSNNYLTKEECLKKCATVTENATGDLATSRNAADSSVPSAPRRQDSEDHSSDMFNYEEYCTANAVTGPCRASFPRWYFDVERNSCNNFIYGGCRGNKNSYRSEEACMLRCFRQQENPPLPLGSKVVVLAGLFVMVLILFLGASMVYLIRVARRNQERALRTVWSSGDDKEQLVKNTYVL	percentage of EdU-negative	25.4
MIPLLLAALLCVPAGALTCYGDSGQPVDWFVVYKLPALRGSGEAAQRGLQYKYLDESSGGWRDGRALINSPEGAVGRSLQPLYRSNTSQLAFLLYNDQPPQPSKAQDSSMRGHTKGVLLLDHDGGFWLVHSVPNFPPPASSAAYSWPHSACTYGQTLLCVSFPFAQFSKMGKQLTYTYPWVYNYQLEGIFAQEFPDLENVVKGHHVSQEPWNSSITLTSQAGAVFQSFAKFSKFGDDLYSGWLAAALGTNLQVQFWHKTVGILPSNCSDIWQVLNVNQIAFPGPAGPSFNSTEDHSKWCVSPKGPWTCVGDMNRNQGEEQRGGGTLCAQLPALWKAFQPLVKNYQPCNGMARKPSRAYKI	percentage of EdU-negative	26.5
MCSTMSAPTCLAHLPPCFLLLALVLVPSDASGQSSRNDWQVLQPEGPMLVAEGETLLLRCMVVGSCTDGMIKWVKVSTQDQQEIYNFKRGSFPGVMPMIQRTSEPLNCDYSIYIHNVTREHTGTYHCVRFDGLSEHSEMKSDEGTSVLVKGAGDPEPDLWIIQPQELVLGTTGDTVFLNCTVLGDGPPGPIRWFQGAGLSREAIYNFGGISHPKETAVQASNNDFSILLQNVSSEDAGTYYCVKFQRKPNRQYLSGQGTSLKVKAKSTSSKEAEFTSEPATEMSPTGLLVVFAPVVLGLKAITLAALLLALATSRRSPGQEDVKTTGPAGAMNTLAWSKGQE [Q5JXA9]	percentage of EdU-negative	26.5
MCGPDDRCPARWPGPGRAVKCGKGLAAARPGRVERGGAQRGGAGLELHPLLGGRTWRAARDADGCEALGTVAVPFDDDDKIVGGYTCEENSLPYQVSLNSGSHFCGGSLISEQWVVSAAHCYKTRIQVRLGEHNIKVLEGNEQFINAAKIIRHPKYNRDTLDNDIMLIKLSSPAVINARVSTISLPTTPPAAGTECLISGWGNTLSFGADYPDELKCLDAPVLTQAECKASYPGKITNSMFCVGFLEGGKDSCQRDSGGPVVCNGQLQGVVSWGHGCAWKNRPGVYTKVYNYVDWIKDTIAANS	percentage of EdU-negative	26.6
MARPLCTLLLLMATLAGALASSSKEENRIIPGGIYDADLNDEWVQRALHFAISEYNKATEDEYYRRPLQVLRAREQTFGGVNYFFDVEVGRTICTKSQPNLDTCAFHEQPELQKKQLCSFEIYEVPWEDRMSLVNSRCQEA	percentage of EdU-negative	24.4
MLGVLELLLLGAAWLAGPARGQNETEPIVLEGKCLVVCDSNPTSDPTGTALGISVRSGSAKVAFSAIRSTNHEPSEMSNRTMIIYFDQVLVNIGNNFDSERSTFIAPRKGIYSFNFHVVKVYNRQTIQVSLMLNGWPVISAFAGDQDVTREAASNGVLIQMEKGDRAYLKLERGNLMGGWKYSTFSGFLVFPL	percentage of EdU-negative	24.9
MEACCLLQLPQRLLLLGAAALTATALETADLAELCGQTWQGDGLLLRSHAASRRFYFVAPDTDCGLWVQAAAPGDRIRFQFRFFLVYSLTPAPPALNTSSPAPADPCAPGSYLQFYEGPPGAPRPLGSPLCGLNIPVPVASSGPFLGLRLVTRGRQPRVDFVGEVTSFRLGPCGAYFRCQNGRCIPSSLVCDPWGMDNCGDGSDQGSWSPADCRGPSPVPSQTGSTDAHTSRSLTPSPALGSAGSLWIAAERSSPAGRDPTRQDAALEGSTE [Q5SZI1]	percentage of EdU-negative	25.3
MSVMKPCLMTIAILMILAQKTPGGLFRSHNGKSREPWNPCELYQGMCRNACREYEIQYLTCPNDQKCCLKLSVKITSSKNVKEDYDSNSNLSVTNSSSYSHI [Q30KQ4]	percentage of EdU-negative	23.5
MQRVSGLLSWTLSRVLWLSGLSEPGAARQPRIMEEKALEVYDLIRTIRDPEKPNTLEELEVVSESCVEVQEINEEEYLVIIRFTPTVPHCSLATLIGLCLRVKLQRCLPFKHKLEIYISEGTHSTEEDINKQINDKERVAAAMENPNLREIVEQCVLEPD [Q9H5X1]	percentage of EdU-negative	26.4
MAALSRALGPLRTPAPPLWIGLFLVATGSQQSLAQPLPGNTTEATPRSLRASGSLCGPHAKAPYLCEATHEPAAARIRAQVPDTRWSRVGGQRFYSRVLSPLHRGPSGHTEASAQRSHMGKLKEPQPQDHKPGLGAS [Q6UXU0]	percentage of EdU-negative	23.7
MKGWGWLALLLGALLGTAWARRSQDLHCGACRALVDELEWEIAQVDPKKTIQMGSFRINPDGSQSVVEVPYARSEAHLTELLEEICDRMKEYGEQIDPSTHRKNYVRVVGRNGESSELDLQGIRIDSDISGTLKFACESIVEEYEDELIEFFSREADNVKDKLCSKRTDLCDHALHISHDEL [Q9Y2B0]	percentage of EdU-negative	25.3
